Assay summary: Solubility
Assay setup: ethanol, organic solvent or mixture

{"Compound": "CCN(CCO)c1ccc(/C=C/c2cc[n+](CCO)cc2)cc1.[I-] [ASPI]", "solubility [mM]": 6.1}
